Kindly supply the reported MIC values for the records listed here.
tested on: Acinetobacter baumannii; test: Antibacterial activity against Acinetobacter baumannii measured by Muller-Hinton broth based microdilution assay; assay type: functional
# unit: µg/mL | format: bare number

For this compound ( O=C1c2cccc3c(N/N=C/c4ccccc4Cl)ccc(c23)C(=O)N1C(CO)CO ), measured MIC is 64

C=CCn1cc(/C=N/Nc2ccc3c4c(cccc24)C(=O)N(C(CO)CO)C3=O)c2ccccc21 has a reported MIC of 64

Looking up CCOC(=O)Cn1cc(/C=N/Nc2ccc3c4c(cccc24)C(=O)N(C(CO)CO)C3=O)c2ccccc21 , I found its MIC recorded as 32

Given item O=C1c2cccc3c(N/N=C/c4ccc(O)c(O)c4O)ccc(c23)C(=O)N1C(CO)CO , the value recorded as its MIC is 16

The measured MIC associated with O=C1c2cccc3c(N/N=C/c4cc(Cl)ccc4O)ccc(c23)C(=O)N1C(CO)CO reads 32

// field: MIC; key: N#Cc1ccc(/C=N/Nc2ccc3c4c(cccc24)C(=O)N(C(CO)CO)C3=O)cc1 ; value = 32

Noted for O=C1c2cccc3c(N/N=C/c4cccs4)ccc(c23)C(=O)N1C(CO)CO : its MIC reads 64

Lab note: measured MIC of O=C1c2cccc3c(N/N=C/c4ccc(O)cc4O)ccc(c23)C(=O)N1C(CO)CO was 64

The reported MIC of the compound O=C1c2cccc3c(N/N=C/c4nccs4)ccc(c23)C(=O)N1C(CO)CO was 32

// field: MIC; key: O=C1c2cccc3c(N/N=C/c4ccccc4O)ccc(c23)C(=O)N1C(CO)CO ; value = 64

Entry CCn1cc(/C=N/Nc2ccc3c4c(cccc24)C(=O)N(C(CO)CO)C3=O)c2ccccc21 , MIC reported as 64

Note to self: MIC recorded for O=C1c2cccc3c(N/N=C/c4ccc(O)c(Br)c4)ccc(c23)C(=O)N1C(CO)CO was 64

Per the record, CCCCCCCCCCCCCCCCn1cc(/C=N/Nc2ccc3c4c(cccc24)C(=O)N(C(CO)CO)C3=O)c2ccccc21 has MIC of 64

O=C1c2cccc(O)c2C(=O)c2c(O)cc(/C=N/Nc3ccc4c5c(cccc35)C(=O)N(C(CO)CO)C4=O)cc21 yielded MIC of 64

Query O=C1c2cccc3c(N/N=C/c4ccc(Cl)cc4Cl)ccc(c23)C(=O)N1C(CO)CO yields MIC of 128

Noted for O=C1c2cccc3c(N/N=C/c4ccc5ccccc5c4)ccc(c23)C(=O)N1C(CO)CO : its MIC reads 64

Lab book: MIC of O=C1c2cccc3c(N/N=C/c4ccc(F)cc4)ccc(c23)C(=O)N1C(CO)CO noted as 32

Measured MIC, O=C1c2cccc3c(N/N=C/c4csc5ccccc45)ccc(c23)C(=O)N1C(CO)CO : 64

Sample O=C1c2cccc3c(N/N=C/c4ccc(O)c(Cl)c4)ccc(c23)C(=O)N1C(CO)CO ; MIC observed: 64
